biological target: EGFR (ErbB1) (Homo sapiens, UniProt P00533); construct: purchased Invitrogen; assay: In vitro kinase assay (Z′-LYTE); assay type: biochemical; conditions: read-out: % of inhibition of the kinase compared to the control
Sequence (P00533 25-1210): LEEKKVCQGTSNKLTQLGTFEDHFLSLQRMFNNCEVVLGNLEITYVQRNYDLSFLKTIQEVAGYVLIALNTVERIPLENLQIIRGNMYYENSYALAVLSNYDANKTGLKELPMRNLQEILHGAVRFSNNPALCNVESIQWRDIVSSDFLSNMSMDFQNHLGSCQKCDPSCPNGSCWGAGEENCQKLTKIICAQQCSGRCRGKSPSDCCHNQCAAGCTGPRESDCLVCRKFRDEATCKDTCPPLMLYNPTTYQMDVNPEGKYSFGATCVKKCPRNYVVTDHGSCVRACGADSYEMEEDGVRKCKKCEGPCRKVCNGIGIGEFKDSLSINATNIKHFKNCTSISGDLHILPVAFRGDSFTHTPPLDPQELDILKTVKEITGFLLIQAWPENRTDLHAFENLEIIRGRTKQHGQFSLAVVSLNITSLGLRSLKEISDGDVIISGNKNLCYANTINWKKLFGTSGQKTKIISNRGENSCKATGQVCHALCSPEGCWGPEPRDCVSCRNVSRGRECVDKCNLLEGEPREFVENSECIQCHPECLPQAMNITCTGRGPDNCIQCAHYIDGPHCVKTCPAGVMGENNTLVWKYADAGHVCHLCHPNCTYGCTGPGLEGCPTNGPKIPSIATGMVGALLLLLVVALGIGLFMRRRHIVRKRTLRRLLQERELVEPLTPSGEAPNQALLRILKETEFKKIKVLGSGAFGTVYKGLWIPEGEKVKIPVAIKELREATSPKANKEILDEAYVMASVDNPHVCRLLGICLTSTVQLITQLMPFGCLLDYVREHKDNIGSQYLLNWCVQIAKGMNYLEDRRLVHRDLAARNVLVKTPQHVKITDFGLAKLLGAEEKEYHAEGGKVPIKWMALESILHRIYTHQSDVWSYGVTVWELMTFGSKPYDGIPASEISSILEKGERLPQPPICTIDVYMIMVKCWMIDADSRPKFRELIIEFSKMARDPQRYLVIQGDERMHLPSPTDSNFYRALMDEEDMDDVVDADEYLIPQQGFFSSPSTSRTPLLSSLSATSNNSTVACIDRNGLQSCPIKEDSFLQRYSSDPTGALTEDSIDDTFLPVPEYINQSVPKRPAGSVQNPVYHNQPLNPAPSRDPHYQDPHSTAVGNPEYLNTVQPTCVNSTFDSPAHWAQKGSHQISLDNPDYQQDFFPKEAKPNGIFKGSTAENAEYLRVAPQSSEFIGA
assay-metric: inhibition at 0.1 µM

{"item-smiles": "COC(=O)c1cc2cc(NCc3cc(NC(=O)c4ccc(Cl)c(C(F)(F)F)c4)ccc3C)cnc2[nH]1", "test-result": "≥ 50%"}
{"item-smiles": "COC(=O)c1cc2cc(NCc3cc(NC(=O)c4ccc5[nH]ccc5c4)ccc3C)cnc2[nH]1", "test-result": "< 50%"}
{"item-smiles": "COC(=O)c1cc2cc(NCc3cc(NC(=O)c4cc(CN5CCN(C)CC5)cc(C(F)(F)F)c4)ccc3C)cnc2[nH]1", "test-result": "≥ 50%"}
{"item-smiles": "COC(=O)c1cc2cc(NCc3cc(NC(=O)c4cccc(OC(F)(F)F)c4)ccc3C)cnc2[nH]1", "test-result": "< 50%"}
{"item-smiles": "COC(=O)c1cc2cc(NCc3cc(NC(=O)c4ccc5[nH]nnc5c4)ccc3C)cnc2[nH]1", "test-result": "< 50%"}

Please state inhibition at 0.1 µM for every molecule in the list that follows.
1. COC(=O)c1cc2cc(NCc3ccc(C)c(NC(=O)c4ccc(CN5CCN(C)CC5)c(C(F)(F)F)c4)c3)cnc2[nH]1
2. COC(=O)c1cc2cc(NCc3cc(NC(=O)c4ccc(CN5CCC(O)CC5)c(C(F)(F)F)c4)ccc3C)cnc2[nH]1
3. COC(=O)c1cc2cc(NCc3cc(NC(=O)c4cc[nH]c4)ccc3C)cnc2[nH]1
4. COC(=O)c1cc2cc(NC(=O)c3cc(NC(=O)c4ccc(CN5CCN(C)CC5)c(C(F)(F)F)c4)ccc3C)cnc2[nH]1

Result:
1. < 50%
2. ≥ 50%
3. < 50%
4. ≥ 50%

* * *

Exercise: state measured inhibition at 0.1 µM for each of the compounds provided.
Biological target: EGFR (ErbB1) T790M L858R (Homo sapiens, UniProt P00533, L858R/T790M)
Construct: purchased Invitrogen
Sequence (P00533 25-1210 T790M/L858R): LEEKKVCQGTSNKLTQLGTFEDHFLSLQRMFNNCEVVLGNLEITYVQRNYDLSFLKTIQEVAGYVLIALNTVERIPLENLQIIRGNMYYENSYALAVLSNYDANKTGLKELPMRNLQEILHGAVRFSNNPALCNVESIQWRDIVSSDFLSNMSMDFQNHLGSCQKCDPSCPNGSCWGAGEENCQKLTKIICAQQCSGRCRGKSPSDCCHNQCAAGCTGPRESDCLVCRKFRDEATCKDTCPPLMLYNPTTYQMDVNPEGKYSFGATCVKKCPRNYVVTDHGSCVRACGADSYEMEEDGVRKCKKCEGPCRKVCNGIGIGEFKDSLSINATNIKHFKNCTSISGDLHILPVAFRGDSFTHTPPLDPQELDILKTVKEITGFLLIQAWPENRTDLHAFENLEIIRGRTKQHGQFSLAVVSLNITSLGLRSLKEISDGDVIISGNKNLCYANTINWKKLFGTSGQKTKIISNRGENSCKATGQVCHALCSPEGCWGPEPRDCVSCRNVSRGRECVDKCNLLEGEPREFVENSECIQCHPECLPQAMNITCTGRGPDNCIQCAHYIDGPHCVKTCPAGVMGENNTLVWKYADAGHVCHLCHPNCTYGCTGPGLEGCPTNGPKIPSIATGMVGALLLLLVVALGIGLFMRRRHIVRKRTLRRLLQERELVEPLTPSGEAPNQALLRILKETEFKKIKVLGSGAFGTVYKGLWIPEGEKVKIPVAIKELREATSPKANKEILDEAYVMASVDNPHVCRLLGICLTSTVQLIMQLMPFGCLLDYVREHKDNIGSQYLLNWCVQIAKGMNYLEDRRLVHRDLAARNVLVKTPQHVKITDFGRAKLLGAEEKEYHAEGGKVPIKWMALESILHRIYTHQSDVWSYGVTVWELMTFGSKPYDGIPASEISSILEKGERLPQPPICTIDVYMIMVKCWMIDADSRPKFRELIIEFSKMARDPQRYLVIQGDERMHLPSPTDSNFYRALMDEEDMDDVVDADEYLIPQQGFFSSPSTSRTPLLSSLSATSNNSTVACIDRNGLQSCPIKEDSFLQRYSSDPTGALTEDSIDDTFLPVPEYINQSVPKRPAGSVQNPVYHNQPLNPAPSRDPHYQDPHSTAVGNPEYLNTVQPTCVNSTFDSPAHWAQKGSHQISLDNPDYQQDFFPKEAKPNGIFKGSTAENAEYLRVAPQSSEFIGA
Experiment: In vitro kinase assay (Z′-LYTE)
Format: biochemical
Settings: read-out: % of inhibition of the kinase compared to the control
Protocol: The inhibitory activity of the compounds on several kinases including BRAF, EGFR (ErbB1), EGFR (ErbB1) T790M L858R, FGFR2, KDR (VEGFR2), PDGFRA (PDGFR alpha), SRC and other was evaluated by Invitrogen using the Z′-LYTE® technology. Briefly, the Z′-LYTE® biochemical assay employs a fluorescence-based, coupled-enzyme format and is based on the differential sensitivity of phosphorylated and non-phosphorylated peptides to proteolytic cleavage. […]

Before answering, review these 2 worked examples.
{"compound": "COC(=O)c1cc2cc(NCc3cc(NC(=O)c4ccc(CN5CCNCC5)c(C(F)(F)F)c4)ccc3C)cnc2[nH]1 [OR0613]", "test-result": "≥ 50%"}
{"compound": "COC(=O)c1cc2cc(NCc3cc(NC(=O)c4cccc(Br)c4)ccc3C)cnc2[nH]1 [OR0608]", "test-result": "< 50%"}

Provide reported inhibition at 0.1 µM for each item, in the same order as listed.
1. COC(=O)c1cc2cc(NC(=O)c3cc(NC(=O)c4ccc(CN5CCN(C)CC5)c(C(F)(F)F)c4)ccc3C)cnc2[nH]1 [OR0744]
2. COC(=O)c1cc2cc(NCc3cc(NC(=O)c4cccc(C)c4)ccc3C)cnc2[nH]1 [OR0607]

Result:
1. ≥ 50%
2. < 50%

Record inhibition at 0.1 µM per entry; entries follow.
1. COC(=O)c1cc2cc(NCc3cc(NC(=O)c4cccc(OC(F)(F)F)c4)ccc3C)cnc2[nH]1 [OR0611]
2. COC(=O)c1cc2cc(NCc3cc(NC(=O)Cc4cccc(C(F)(F)F)c4)ccc3C)cnc2[nH]1 [OR0601]
3. CCCOC(=O)c1cc2cc(NCc3cc(NC(=O)c4ccc(CN5CCN(C)CC5)c(C(F)(F)F)c4)ccc3C)cnc2[nH]1 [OR0697]

Result:
< 50%
< 50%
< 50%
